target-of-assay: HDM2 (Homo sapiens (Human), UniProt Q00987)
Sequence (Q00987 17-125): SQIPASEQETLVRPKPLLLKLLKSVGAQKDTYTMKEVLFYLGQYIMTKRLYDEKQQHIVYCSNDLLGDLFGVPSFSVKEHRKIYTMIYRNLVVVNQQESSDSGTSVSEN
protocol-text: HDM2 FRET assay (inhibition of p53 peptide binding to HDM2)
applied-conditions: truncated HDM2 residues 17 to 125, 0.5 nM; FITC labeled 8-mer peptide 3 nM; two hour incubation at room temperature
# strict inequality: IC50 < 40 nM yields criterion met, everything else yields criterion not met

Some solved cases for reference:
Cc1cccc(-c2cc3nc(C(=O)O)nc(N[C@H](C)C4CCC4)c3n2Cc2ccc(OC(F)(F)F)cc2)c1 : criterion not met
Cc1cccc(-c2cc3nc(C(=O)O)nc(N[C@H](C)C4CCC4)c3n2Cc2ccc(OC(F)(F)F)c(F)c2)c1 : criterion not met
Cc1cccc(-c2cc3nc(C(=O)O)nc(N[C@H](C)C4CCC4)c3n2Cc2ccc(C(F)(F)F)cc2)c1 : criterion not met
C[C@H]1CC[C@H](Cn2c(C(F)c3ccccc3F)cc3nc(C(=O)O)nc(-c4cncc(Cl)c4)c32)CC1 (mixture of isomers) : criterion met
CC(C)Cc1cn(C[C@H]2CC[C@H](C)CC2)c2c(-c3cncc(Cl)c3)nc(C(=O)O)nc12 : criterion not met
C[C@H]1CC[C@H](Cn2c(C(F)c3ccccc3F)cc3nc(-c4noc(=O)[nH]4)nc(-c4cncc(Cl)c4)c32)CC1 (some centres unmarked) : criterion met

Prompt line: # check: IC50 < 40 nM for `COc1ccc(Cn2c(-c3cccc(C)c3)cc3nc(C(=O)O)nc(N[C@H](C)C4CCC4)c32)cc1`
Response line: criterion not met

Prompt line: API: query returns whether the compound falls strictly under 40 nM in IC50. Query: `Cc1cccc(-c2cc3nc(C(=O)O)nc(N[C@H](C)C4CCC4)c3n2Cc2ccc(C(F)(F)F)nc2)c1`
Response line: criterion not met

Prompt line: Dear colleague, could you confirm whether IC50 of `COc1ccc(C)cc1-c1cc2nc(C(=O)O)nc(N[C@H](C)C3CCC3)c2n1Cc1ccc(C(F)(F)F)cc1` falls below 40 nM? Thanks.
Response line: criterion not met

Prompt line: # TODO verify IC50 < 40 nM strictly for this compound: `Cc1cn(C[C@H]2CC[C@H](C)CC2)c2c(-c3cncc(Cl)c3)nc(-c3noc(=O)[nH]3)nc12`
Response line: criterion met

Prompt line: For `C[C@H]1CC[C@H](Cn2ccc3nc(-c4noc(=O)[nH]4)nc(-c4cccc(Cl)c4)c32)CC1` , is the recorded IC50 below the cut-off of 40 nM?
Response line: criterion not met

====

target-of-assay: HDM2 (Homo sapiens (Human), UniProt Q00987)
protocol-text: HDM2 FRET assay (inhibition of p53 peptide binding to HDM2)
applied-conditions: truncated HDM2 residues 17 to 125, 0.5 nM; FITC labeled 8-mer peptide 3 nM; two hour incubation at room temperature
readout-name: pIC50
# pIC50 = -log10(concentration in molar units)

Example entries begin here.
Cc1ccc(F)c(-c2cc3nc(C(=O)O)nc(N[C@H](C)C4CCC4)c3n2Cc2ccc(C(F)(F)F)cc2)c1 : 7.21
Cc1cccc(-c2cc3nc(C(=O)O)nc(N[C@H](C)C4CCC4)c3n2Cc2ccc(F)c(F)c2)c1 : 6.90

Prompt line: Record request: pIC50 value, item `C[C@H]1CC[C@H](Cn2cc(-c3ccccc3)c3nc(C(=O)O)nc(-c4cncc(Cl)c4)c32)CC1`
Response line: 7.14

Prompt line: Any idea what its pIC50 is? The compound is `Cc1cn(C[C@H]2CC[C@H](C)CC2)c2c(-c3cncc(Cl)c3)nc(C(=O)O)nc12`
Response line: 7.06

Prompt line: Param item = `Cc1ccc(Cl)c(-c2cn(Cc3ccc(C(F)(F)F)cc3)c3c(N[C@H](C)C4CCC4)nc(C(=O)O)nc23)c1` ; retrieve measured pIC50.
Response line: 6.15

Prompt line: Return reported pIC50; argument: `C[C@H]1CC[C@H](Cn2cc(Cc3cccnc3)c3nc(-c4noc(=O)[nH]4)nc(-c4cncc(Cl)c4)c32)CC1`
Response line: 7.28

Prompt line: Tell me the measured pIC50 of `C[C@@H](Nc1nc(C(=O)O)nc2cc(-c3ccc4occc4c3)n(Cc3ccc(C(F)(F)F)cc3)c12)C1CCC1` , please.
Response line: 6.98

====

target-of-assay: HDM2 (Homo sapiens (Human), UniProt Q00987)
protocol-text: HDM2 FRET assay (inhibition of p53 peptide binding to HDM2)
applied-conditions: truncated HDM2 residues 17 to 125, 0.5 nM; FITC labeled 8-mer peptide 3 nM; two hour incubation at room temperature
List of pIC50 values.
pIC50 here: minus log base 10 of the concentration, concentration in moles per litre.

Study these solved cases before continuing.
Cc1cccc(-c2cc3nc(C(=O)O)nc(N[C@H](C)C4CCC4)c3n2Cc2ccc(C)c(F)c2)c1 [Example 3.6] : 6.91
Cc1cccc(-c2c(C)c3nc(C(=O)O)nc(N[C@H](C)C4CCC4)c3n2Cc2ccc(C(F)(F)F)cc2)c1 [Example 1.4] : 6.89
Cc1c(-c2cc(C(C)C)ccn2)n(Cc2ccc(C(F)(F)F)cc2)c2c(N[C@H](C)C3CCC3)nc(C(=O)O)nc12 [Example 1.11] : 7.30
C[C@H]1CC[C@H](Cn2ccc3nc(C(=O)O)nc(-c4cccc(Cl)c4)c32)CC1 [Example 4.1] : 6.53
C[C@H]1CC[C@H](Cn2cc(Cc3ccccc3)c3nc(-c4n[nH]c(=O)o4)nc(-c4cncc(Cl)c4)c32)CC1 [Example 5.6] : 7.27

Prompt line: Field request: pIC50 | item: Cc1cccc(-c2cc3nc(C(=O)O)nc(N[C@H](C)C4CCC4)c3n2Cc2ccc(C(F)(F)F)c(F)c2)c1 [Example 2.7]
Response line: 7.06

Prompt line: I would be grateful if you could share the reported pIC50 for Cc1ccc(Cl)c(-c2cc3nc(C(=O)O)nc(N[C@H](C)C4CCC4)c3n2Cc2ccc(C(F)(F)F)cc2)c1 [Example 1.7] .
Response line: 7.20

Prompt line: Find the recorded pIC50 belonging to Cc1cn(C[C@H]2CC[C@H](C)CC2)c2c(-c3cccc(Cl)c3)nc(-c3noc(=O)[nH]3)nc12 [Example 5.2] and report it.
Response line: 6.97

====

target-of-assay: HDM2 (Homo sapiens (Human), UniProt Q00987)
protocol-text: HDM2 FRET assay (inhibition of p53 peptide binding to HDM2)
applied-conditions: truncated HDM2 residues 17 to 125, 0.5 nM; FITC labeled 8-mer peptide 3 nM; two hour incubation at room temperature
In this section we review reported IC50 values for a set of molecules.

Solved entries (count: 2):
C[C@H]1CC[C@H](Cn2ccc3nc(-c4n[nH]c(=O)o4)nc(-c4cncc(Cl)c4)c32)CC1 : 95 nM
C[C@H]1CC[C@H](Cn2ccc3nc(C(=O)O)nc(-c4cncc(Cl)c4)c32)CC1 : 247 nM

Then there is this molecule:
Prompt line: // query IC50 value for entry `CC(C)Cc1cn(C[C@H]2CC[C@H](C)CC2)c2c(-c3cncc(Cl)c3)nc(-c3noc(=O)[nH]3)nc12`
Response line: 35 nM

// data source = patent US9637493B2
